Value source: patent US6534504B1

Provide the reported Δ % SUN 24 Hours (percent decrease in serum urea nitrogen compared with baseline T=0) of each item.
system: cattle; test: Intravenous administration to cattle: serum NEFA and SUN levels; assay type: in vivo, cattle (Angus/Angus cross calves); conditions: 40 μg per kilogram intravenously at 6:30 A.M. and 2:30 P.M., 24 hours post treatment, mean of five animals
One number for each entry, in %.

Examples with answers:
INSERT INTO measurements (smiles_str, obs_value) VALUES
  ('CC(C)(Cc1ccc(Oc2ccc(S(C)(=O)=O)cc2)cc1)NC[C@H](O)COc1cccc2[nH]ncc12', '−25.4'),
  ('CC(C)(Cc1ccc(Oc2ccc(C(=O)N3CCOCC3)cn2)cc1)NC[C@H](O)COc1cccc2[nH]ncc12', '−40.1'),
  ('CC(C)(Cc1ccc(Oc2ccc(C#N)cn2)cc1)NC[C@H](O)COc1cccc2[nH]ncc12', '−24.7');

Shift focus to the following entry.
Report measured Δ % SUN 24 Hours (percent decrease in serum urea nitrogen compared with baseline T=0); entry is CC(C)(Cc1ccc(Oc2ccc(C(N)=O)cn2)cc1)NC[C@H](O)COc1cccc2[nH]ncc12 −28.7
